Tested on: 922993-354-T-J3-PDC complex spheroids, viability, % test/control
assay-explanation: Anticancer human tumor 922993-354-T-J3-PDC patient-derived endometrial carcinoma cell line growth inhibition [CLK]
cond: second compound 1 µM; first compound 1 µM; stronger effect = lower value
Excerpt: A high-throughput screen of multi-cell type tumor spheroids was designed to identify active combinations of […] and targeted small molecules. Complex spheroids include a stromal component modeled by human endothelial cells (HUVEC) and fibroblasts modeled by human mesenchymal stem cells (MSCs). […] Compounds. […] If the clinical Cmax for an agent had not been determined, the highest concentration tested was 10 microM. […]
endpoint: viability, T/C (%)
Respond numerically; units are % and should not be typed.

{"compound": "COc1cccc2c1C(=O)c1c(O)c3c(c(O)c1C2=O)CC(O)(C(=O)CO)CC3OC1CC(N)C(O)C(C)O1 (configuration not stated) + CNC(=O)c1ccc(Nc2nc(OC3CCCC3)c3c(-c4ccc5nc(C)oc5c4)c[nH]c3n2)c(OC)c1", "viability, T/C, %": 23.5}

Could you now consider this next compound?
IN: Give reported viability, T/C for CC(=O)O[C@H]1C(=O)[C@@]2(C)[C@H]([C@H](OC(=O)c3ccccc3)[C@]3(O)C[C@H](OC(=O)[C@H](O)[C@@H](NC(=O)c4ccccc4)c4ccccc4)C(C)=C1C3(C)C)[C@]1(OC(C)=O)CO[C@@H]1C[C@@H]2O + CN1CCN(c2cc(C(=O)Nc3cc4cc(-c5cnn(C)c5)ccc4cn3)ccn2)CC1 (922993-354-T-J3-PDC complex spheroids, viability, % test/control)
OUT: 0.07

----------
Test system: 922993-354-T-J3-PDC complex spheroids, viability, % test/control
assay-explanation: Anticancer human tumor 922993-354-T-J3-PDC cell line growth inhibition [CLK];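 further: spheroids exposed to the agents for 7 days before readout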
cond: curve of first compound; second compound 0.1 µM
Excerpt: A high-throughput screen of multi-cell type tumor spheroids was designed to identify active combinations of […] and targeted small molecules. Complex spheroids include a stromal component modeled by human endothelial cells (HUVEC) and fibroblasts modeled by human mesenchymal stem cells (MSCs). […] Compounds. […] If the clinical Cmax for an agent had not been determined, the highest concentration tested was 10 microM. […]
endpoint: IC50 (µM)
Respond numerically; units are µM and should not be typed.

IN: Report IC50, nothing else, for this compound: CC(=O)O[C@H]1C(=O)[C@@]2(C)[C@H]([C@H](OC(=O)c3ccccc3)[C@]3(O)C[C@H](OC(=O)[C@H](O)[C@@H](NC(=O)c4ccccc4)c4ccccc4)C(C)=C1C3(C)C)[C@]1(OC(C)=O)CO[C@@H]1C[C@@H]2O + CN1CCN(c2cc(C(=O)Nc3cc4cc(-c5cnn(C)c5)ccc4cn3)ccn2)CC1
OUT: 2.37

IN: Report IC50, nothing else, for this compound: CC(C)CC(NC(=O)C(Cc1ccccc1)NC(=O)c1cnccn1)B(O)O (stereo not given) + CNC(=O)c1ccc(Nc2nc(OC3CCCC3)c3c(-c4ccc5nc(C)oc5c4)c[nH]c3n2)c(OC)c1
OUT: 0.0111

IN: Report IC50, nothing else, for this compound: CC1(C)CCC(CN2CCN(c3ccc(C(=O)NS(=O)(=O)c4ccc(NCC5CCOCC5)c([N+](=O)[O-])c4)c(Oc4cnc5[nH]ccc5c4)c3)CC2)=C(c2ccc(Cl)cc2)C1 + CN1CCN(c2cc(C(=O)Nc3cc4cc(-c5cnn(C)c5)ccc4cn3)ccn2)CC1
OUT: 5.42

----------
Tested on: 922993-354-T-J3-PDC complex spheroids, viability, % test/control
assay-explanation: Anticancer human tumor 922993-354-T-J3-PDC cell line growth inhibition [CLK];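 further: spheroids exposed to the agents for 7 days before readout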
cond: second compound 0.1 µM; first compound 1 µM; stronger effect = lower value
Returns: string. Value is t if measured viability, T/C is below 90%, and f if it is greater than or equal to it.

{"compound": "CCN1CCN(Cc2ccc(Nc3ncc(F)c(-c4cc(F)c5nc(C)n(C(C)C)c5c4)n3)nc2)CC1 + CNC(=O)c1ccc(Nc2nc(OC3CCCC3)c3c(-c4ccc5nc(C)oc5c4)c[nH]c3n2)c(OC)c1", "classification": "t"}

IN: Lab note: viability, T/C threshold 90%. Does this compound come in strictly under it? COc1c(OCCCN2CCOCC2)ccc2c3n(c(=NC(=O)c4cnc(N)nc4)nc12)CCN3 + CN1CCN(c2cc(C(=O)Nc3cc4cc(-c5cnn(C)c5)ccc4cn3)ccn2)CC1
OUT: t

IN: Lab note: viability, T/C threshold 90%. Does this compound come in strictly under it? CC1(C)CCC(CN2CCN(c3ccc(C(=O)NS(=O)(=O)c4ccc(NCC5CCOCC5)c([N+](=O)[O-])c4)c(Oc4cnc5[nH]ccc5c4)c3)CC2)=C(c2ccc(Cl)cc2)C1 + CNC(=O)c1ccc(Nc2nc(OC3CCCC3)c3c(-c4ccc5nc(C)oc5c4)c[nH]c3n2)c(OC)c1
OUT: f

----------
Tested on: 922993-354-T-J3-PDC complex spheroids, viability, % test/control
assay-explanation: Anticancer human tumor 922993-354-T-J3-PDC cell line growth inhibition [CLK];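 further: spheroids exposed to the agents for 7 days before readout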
cond: second compound 10 µM; first compound 0.0949 µM; stronger effect = lower value
endpoint: viability, T/C (%)
Respond numerically; units are % and should not be typed.

{"compound": "NC(=O)C(=Cn1cnc(-c2cc(C(F)(F)F)cc(C(F)(F)F)c2)n1)c1cncnc1 + CN1CCN(c2cc(C(=O)Nc3cc4cc(-c5cnn(C)c5)ccc4cn3)ccn2)CC1", "units-label": "%", "viability, T/C": 1.88}
{"compound": "C=CC(=O)Nc1cc(Nc2nccc(-c3cn(C)c4ccccc34)n2)c(OC)cc1N(C)CCN(C)C + CNC(=O)c1ccc(Nc2nc(OC3CCCC3)c3c(-c4ccc5nc(C)oc5c4)c[nH]c3n2)c(OC)c1", "units-label": "%", "viability, T/C": 29}

IN: Report viability, T/C, nothing else, for this compound: C=CC(=O)Nc1cc(Nc2nccc(-c3cn(C)c4ccccc34)n2)c(OC)cc1N(C)CCN(C)C + CN1CCN(c2cc(C(=O)Nc3cc4cc(-c5cnn(C)c5)ccc4cn3)ccn2)CC1
OUT: 1.05

----------
Test system: 922993-354-T-J3-PDC complex spheroids, viability, % test/control
assay-explanation: Anticancer human tumor 922993-354-T-J3-PDC cell line growth inhibition [CLK];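 further: spheroids exposed to the agents for 7 days before readout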
cond: second compound 0.0316 µM; first compound 0.3 µM; stronger effect = lower value
endpoint: viability, T/C (%)
Respond numerically; units are % and should not be typed.

Answered cases to consult:
{"compound": "NC(=O)C(=Cn1cnc(-c2cc(C(F)(F)F)cc(C(F)(F)F)c2)n1)c1cncnc1 + CNC(=O)c1ccc(Nc2nc(OC3CCCC3)c3c(-c4ccc5nc(C)oc5c4)c[nH]c3n2)c(OC)c1", "units-label": "%", "result-value": 57.7}
{"compound": "C=CC(=O)Nc1cc(Nc2nccc(-c3cn(C)c4ccccc34)n2)c(OC)cc1N(C)CCN(C)C + CN1CCN(c2cc(C(=O)Nc3cc4cc(-c5cnn(C)c5)ccc4cn3)ccn2)CC1", "units-label": "%", "result-value": 73.1}
{"compound": "CC(C)CC(NC(=O)C(Cc1ccccc1)NC(=O)c1cnccn1)B(O)O (stereo unspecified) + CNC(=O)c1ccc(Nc2nc(OC3CCCC3)c3c(-c4ccc5nc(C)oc5c4)c[nH]c3n2)c(OC)c1", "units-label": "%", "result-value": 2.25}
{"compound": "C=CC(=O)Nc1cc(Nc2nccc(-c3cn(C)c4ccccc34)n2)c(OC)cc1N(C)CCN(C)C + CNC(=O)c1ccc(Nc2nc(OC3CCCC3)c3c(-c4ccc5nc(C)oc5c4)c[nH]c3n2)c(OC)c1", "units-label": "%", "result-value": 89.2}
{"compound": "CC(C)CC(NC(=O)C(Cc1ccccc1)NC(=O)c1cnccn1)B(O)O (stereo unspecified) + CN1CCN(c2cc(C(=O)Nc3cc4cc(-c5cnn(C)c5)ccc4cn3)ccn2)CC1", "units-label": "%", "result-value": 1.26}

Could you now consider this next compound?
IN: Report viability, T/C, nothing else, for this compound: NC(=O)C(=Cn1cnc(-c2cc(C(F)(F)F)cc(C(F)(F)F)c2)n1)c1cncnc1 + CN1CCN(c2cc(C(=O)Nc3cc4cc(-c5cnn(C)c5)ccc4cn3)ccn2)CC1
OUT: 40.1

----------
Quick reference: viability, T/C of the listed items.
System: 922993-354-T-J3-PDC complex spheroids, viability, % test/control
assay-explanation: Anticancer human tumor 922993-354-T-J3-PDC cell line growth inhibition [CLK];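 further: spheroids exposed to the agents for 7 days before readout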
cond: second compound 0.0316 µM; first compound 0.1 µM; stronger effect = lower value
Respond numerically; units are % and should not be typed.

Answered cases to consult:
{"molecule": "CC(CO)NC(=O)c1cc(-c2ccc(Cl)cc2)nn(-c2cnn(C)c2)c1=O (stereo not drawn) + CNC(=O)c1ccc(Nc2nc(OC3CCCC3)c3c(-c4ccc5nc(C)oc5c4)c[nH]c3n2)c(OC)c1", "units-label": "%", "result-value": 100}
{"molecule": "C#Cc1c(F)ccc2cc(O)cc(-c3ncc4c(N5CC6CCC(C5)N6)nc(OCC56CCCN5CC(F)C6)nc4c3F)c12 (stereo not drawn) + CN1CCN(c2cc(C(=O)Nc3cc4cc(-c5cnn(C)c5)ccc4cn3)ccn2)CC1", "units-label": "%", "result-value": 113}

Could you now consider this next molecule?
IN: Report viability, T/C, nothing else, for this molecule: COc1ccc([C@@H](O)c2cc(-c3ncnc4cc(N5CCOCC5)ccc34)c(F)cc2Cl)nn1 + CNC(=O)c1ccc(Nc2nc(OC3CCCC3)c3c(-c4ccc5nc(C)oc5c4)c[nH]c3n2)c(OC)c1
OUT: 112
